tested on: Wnt/β-catenin pathway target genes in U-138 MG cells; experiment: qPCR of β-catenin and Wnt target genes, U-138 MG; format: cell-based, human; conditions: 48 h, mRNA vs DMSO control, single agent
experimental.endpoint: Axin2 expression

- COC(=O)c1c(C)cc(OC(=O)c2c(C)cc(O)c(C=O)c2O)c(C)c1O: downregulated
- CCCCCCCCCCCCCCC(C(=O)O)C(O)(CC(=O)OC)C(=O)O (stereo not shown): downregulated
- COc1cc(C)c(C(=O)Oc2cc(C)c(C(=O)O)c(O)c2C)c(O)c1C(=O)O: downregulated
